From: ChEMBL document CHEMBL2176890

target: Transient receptor potential cation channel subfamily V member 1 (Homo sapiens, UniProt Q8NER1); experiment: Antagonist activity at human TRPV1 expressed in CHOK1 cells assessed as inhibition of capsaicin-induced activity by FLIPR assay; format: functional, cell-based, CHO-K1; details: read-out: Ki
Sequence (Q8NER1 whole entry): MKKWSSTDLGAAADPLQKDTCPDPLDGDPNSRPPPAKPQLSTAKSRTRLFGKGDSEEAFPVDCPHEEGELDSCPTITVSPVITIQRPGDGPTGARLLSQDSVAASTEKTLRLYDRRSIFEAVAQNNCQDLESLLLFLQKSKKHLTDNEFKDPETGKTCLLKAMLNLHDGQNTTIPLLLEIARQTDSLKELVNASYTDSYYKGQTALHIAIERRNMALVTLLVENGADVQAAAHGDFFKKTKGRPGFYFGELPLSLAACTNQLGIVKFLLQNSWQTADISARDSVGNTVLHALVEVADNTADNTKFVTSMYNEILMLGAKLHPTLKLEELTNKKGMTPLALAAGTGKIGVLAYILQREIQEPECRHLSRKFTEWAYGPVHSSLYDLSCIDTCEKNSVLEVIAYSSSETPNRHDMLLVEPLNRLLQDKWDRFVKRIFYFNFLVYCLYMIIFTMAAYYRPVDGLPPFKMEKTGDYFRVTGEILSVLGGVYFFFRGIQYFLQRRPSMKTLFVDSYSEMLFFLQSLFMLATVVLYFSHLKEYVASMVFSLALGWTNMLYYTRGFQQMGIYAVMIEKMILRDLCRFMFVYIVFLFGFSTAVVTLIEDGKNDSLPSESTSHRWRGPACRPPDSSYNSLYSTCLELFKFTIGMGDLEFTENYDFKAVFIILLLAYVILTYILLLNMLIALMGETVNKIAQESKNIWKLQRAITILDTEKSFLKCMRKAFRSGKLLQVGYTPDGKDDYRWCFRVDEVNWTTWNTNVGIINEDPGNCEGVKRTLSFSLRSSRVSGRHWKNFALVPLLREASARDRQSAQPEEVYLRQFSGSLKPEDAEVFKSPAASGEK
measure.name: log10 Ki (log10 of the value in nM)
Record value = log10 of Ki given in nM.

Here is how some compounds turned out for log10 Ki.
compound	log10 Ki
C[C@H](C(=O)NCc1ccc(C(C)(C)C)cc1)c1ccc(NS(C)(=O)=O)c(F)c1	1.30
CC1CCN(c2nc(C(F)(F)F)ccc2CNC(=O)[C@H](C)c2ccc(NS(C)(=O)=O)c(F)c2)CC1	0.99
CC(C(=O)NCc1ccc(C(F)(F)F)nc1N1CCC(C(=O)c2ccc(F)cc2)CC1)c1ccc(NS(C)(=O)=O)c(F)c1 (racemic)	0.59
C[C@H](C(=O)NCc1ccc(C(F)(F)F)nc1N1CCC[C@H]1C(=O)OC(C)(C)C)c1ccc(NS(C)(=O)=O)c(F)c1	0.41
C[C@H](C(=O)NCc1ccc(C(F)(F)F)nc1N1CC[C@@H](N(C)C)C1)c1ccc(NS(C)(=O)=O)c(F)c1	2.00
CC(C(=O)NCc1ccc(C(F)(F)F)nc1N1CCCCCC1)c1ccc(NS(C)(=O)=O)c(F)c1 (racemic)	-0.10

Name the reported log10 Ki value associated with the compound "C[C@H](C(=O)NCc1ccc(C(F)(F)F)nc1N1CC[C@@H](OCc2ccccc2)C1)c1ccc(NS(C)(=O)=O)c(F)c1"
0.15

###

Each entry below carries its recorded IC50.
molecular target: UniProt:Q8NER1; test: Antagonist activity at human TRPV1 expressed in CHOK1 cells assessed as inhibition of pH-induced activity by FLIPR assay; format: functional, cell-based, CHO-K1; conditions: read-out: IC50
Mention the unit after the number when you answer.

Worked cases, answers included:
compound	system	measure.name	result
CC1CCN(c2nc(C(F)(F)F)ccc2CNC(=O)[C@H](C)c2ccc(NS(C)(=O)=O)c(F)c2)CC1	UniProt:Q8NER1	IC50	254 nM
CC(C(=O)NCc1ccc(C(F)(F)F)nc1N1CCN(c2ccc(C(F)(F)F)cc2)CC1)c1ccc(NS(C)(=O)=O)c(F)c1 (racemic)	UniProt:Q8NER1	IC50	117 nM
C[C@H](C(=O)NCc1ccc(C(F)(F)F)nc1N1CC[C@H](NC(=O)OC(C)(C)C)C1)c1ccc(NS(C)(=O)=O)c(F)c1	UniProt:Q8NER1	IC50	737 nM
C[C@H](C(=O)NCc1ccc(C(F)(F)F)nc1N1CCC[C@H]1C(=O)OC(C)(C)C)c1ccc(NS(C)(=O)=O)c(F)c1	UniProt:Q8NER1	IC50	209 nM
C[C@H](C(=O)NCc1ccc(C(F)(F)F)nc1N1CC[C@@H](OCc2ccccc2)C1)c1ccc(NS(C)(=O)=O)c(F)c1	UniProt:Q8NER1	IC50	50 nM

Consider the compound shown here: "C[C@H](C(=O)NCc1ccc(C(F)(F)F)nc1N1CCCCC1)c1ccc(NS(C)(=O)=O)c(F)c1" What is its recorded IC50?
46.7 nM

Quick one: "C[C@H](C(=O)NCc1ccc(C(C)(C)C)cc1)c1ccc(NS(C)(=O)=O)c(F)c1"
1210 nM

Another compound: "CC1CCN(c2nc(C(F)(F)F)ccc2CNC(=O)[C@@H](C)c2ccc(NS(C)(=O)=O)c(F)c2)CC1"
6.3 nM

###

molecular target: Transient receptor potential cation channel subfamily V member 1 (Homo sapiens, UniProt Q8NER1); experiment: Antagonist activity at human TRPV1 expressed in CHOK1 cells assessed as inhibition of pH-induced activity by FLIPR assay; assay type: functional, cell-based, CHO-K1; conditions: read-out: IC50
# IC50 per record follows
Entry rule: numbers only, all in µM.

Guide cases for IC50, answers given:
compound	numeric.value
Cc1ccc(CC2CCN(c3nc(C(F)(F)F)ccc3CNC(=O)C(C)c3ccc(NS(C)(=O)=O)c(F)c3)CC2)cc1 (racemic)	0.017
CC(C(=O)NCc1ccc(C(F)(F)F)nc1N1CCN(c2ncccc2Cl)CC1)c1ccc(NS(C)(=O)=O)c(F)c1 (racemic)	0.117
CC(C(=O)NCc1ccc(C(F)(F)F)nc1N1CCCCCC1)c1ccc(NS(C)(=O)=O)c(F)c1 (racemic)	0.0251
CC1CCC(Nc2nc(C(F)(F)F)ccc2CNC(=O)C(C)c2ccc(NS(C)(=O)=O)c(F)c2)CC1 (racemic)	1.13
O=C(/C=C/c1ccc(C(F)(F)F)nc1N1CCOCC1)Nc1ccc2cccnc2c1	0.116
CC(C(=O)NCc1ccc(C(F)(F)F)nc1N1CCC(CN(C)C)CC1)c1ccc(NS(C)(=O)=O)c(F)c1 (racemic)	0.426
CC(C(=O)NCc1ccc(C(F)(F)F)nc1N1CCC(C(=O)c2ccc(F)cc2)CC1)c1ccc(NS(C)(=O)=O)c(F)c1 (racemic)	0.99
C[C@H](C(=O)NCc1ccc(C(F)(F)F)nc1N1CC[C@@H](NC(=O)OC(C)(C)C)C1)c1ccc(NS(C)(=O)=O)c(F)c1	0.757

Data request, read-out IC50, for CC(C(=O)NCc1ccc(C(F)(F)F)nc1N1CCC(Cc2ccc(F)c(F)c2)CC1)c1ccc(NS(C)(=O)=O)c(F)c1 (racemic)
0.03

# iterate: CC(C(=O)NCc1ccc(C(F)(F)F)nc1N1CCC(Cc2cc(F)cc(F)c2)CC1)c1ccc(NS(C)(=O)=O)c(F)c1 (racemic)
0.024

Input CC1CCN(c2nc(C(F)(F)F)ccc2CNC(=O)C(C)c2ccc(NS(C)(=O)=O)c(F)c2)CC1 (racemic)
0.0084
